These measurements were taken from ChEMBL document CHEMBL3301361.

assay: physchem; details: octan-1-ol/water, pH 7.4, LogD7.4
Label key: MET means logD under 3; NOT MET means logD of 3 or more.

Example entries begin here.
> print(dat)
                                smiles.repr  class
1                   O=C(COc1ccccc1)N1CCOCC1    MET
2  COC[C@@H](O)Cn1c(=O)cnn(-c2ccc(Cl)c(C(=O)NCC3(O)CCCCCC3)c2)c1=O    MET

Ask: Quick check: logD of "Cc1ccc(NC(=O)c2ccnc(N3CCOCC3)c2)cc1Nc1ccnc(OCCCN(C)C)n1" under 3?
Reply: MET

Ask: Quick check: logD of "O=S(=O)(Nc1nccs1)c1ccc(O)cc1" under 3?
Reply: MET

Ask: Quick check: logD of "Cc1sc(N2CCN(C)CC2)nc1CCOc1ccc(C[C@H](Nc2ccccc2C(=O)c2ccccc2)C(=O)O)cc1" under 3?
Reply: MET

Ask: Quick check: logD of "Cn1cnc2cc(C#Cc3ccccc3)cnc21" under 3?
Reply: NOT MET

Ask: Quick check: logD of "CCN(CC)S(=O)(=O)c1ccc(NC(=O)[C@@](C)(O)C(F)(F)F)c(Cl)c1" under 3?
Reply: NOT MET

Ask: Quick check: logD of "CC(=O)N1CCN(c2ccc(Nc3nccc(-c4cnc5ccccn45)n3)cc2)CC1" under 3?
Reply: MET

Ask: Quick check: logD of "COc1ccc2ncc(=O)n(CCN3CC[C@H](NCc4cc5c(cn4)OCCO5)[C@@H](OC)C3)c2c1" under 3?
Reply: MET

Ask: Quick check: logD of "O=C(NNc1cccc(Cl)c1)c1cccnc1Cl" under 3?
Reply: MET

###

assay: in vitro; details: human, hepatocytes
Mark NO for hepatocyte CLint values under 40 µL/min/1e6 cells, and YES for everything at or above.

Example entries begin here.
> print(dat)
                                   compound  class
1  O=c1c2sccc2n(CC2COc3ccccc3O2)c(=O)n1O (stereo not drawn)    YES
2  CNC(=O)c1ccc(C)c(-n2c(C)cc(OCc3ccc(F)cc3F)c(Br)c2=O)c1     NO
3  O=C(O)COc1ccc(Cl)cc1CN1CCN(S(=O)(=O)Cc2ccccc2)CC1     NO
4                       O=c1ccc2ccc(O)cc2o1    YES
5  CCN(C(=O)c1ccc(-c2ccc(Cl)cc2)o1)c1ccc(N2CCNCC2)cc1     NO

Ask: Decide: is the reported value of hepatocyte CLint for "CC(C)(C)NC(=O)NCCN1CCC(CO)(CNC(=O)c2cc(Cl)cc(Cl)c2)CC1" equal to or greater than 40 µL/min/1e6 cells?
Reply: NO

Ask: Decide: is the reported value of hepatocyte CLint for "O=C(NCC1(O)CCCCCC1)c1cc(-n2ncc(=O)[nH]c2=O)ccc1Cl" equal to or greater than 40 µL/min/1e6 cells?
Reply: NO

Ask: Decide: is the reported value of hepatocyte CLint for "CCCc1nc2c(C)cc(-c3nc4ccccc4n3C)cc2n1Cc1ccc(-c2ccccc2C(=O)O)cc1" equal to or greater than 40 µL/min/1e6 cells?
Reply: NO

Ask: Decide: is the reported value of hepatocyte CLint for "C[C@H](Cc1cccc(CC(=O)NC23CC4CC(CC(C4)C2)C3)c1)NC[C@H](O)c1ccc(O)c(CO)c1" equal to or greater than 40 µL/min/1e6 cells?
Reply: NO

Ask: Decide: is the reported value of hepatocyte CLint for "CCN1CCN(c2ccc(Nc3cc(N(C)C(=O)Nc4c(Cl)c(OC)cc(OC)c4Cl)ncn3)cc2)CC1" equal to or greater than 40 µL/min/1e6 cells?
Reply: NO

Ask: Decide: is the reported value of hepatocyte CLint for "Cc1nn(-c2ccc(F)cc2)c(NS(=O)(=O)c2ccc(C#N)cc2)c1C(=O)N[C@@H](C)C(C)(C)C" equal to or greater than 40 µL/min/1e6 cells?
Reply: NO

Ask: Decide: is the reported value of hepatocyte CLint for Cc1c(C)c2c(c(C)c1O)CCC(C)(COc1ccc(CC3SC(=O)NC3=O)cc1)O2 (stereo not drawn) equal to or greater than 40 µL/min/1e6 cells?
Reply: NO

###

assay: physchem; conditions: pH 7.4 buffer
assay readout: log10 solubility thermodynamic (log10 of the value in µM)
A value of 2 here means solubility thermodynamic of 100 in µM, since values are log10.

> print(dat)
                                    compound  experimental.result
 1                  Oc1ncnc2scc(-c3ccsc3)c12                 2.25
 2  CS(=O)(=O)c1ccc2c3c([nH]c2c1)CCN(C(=O)[C@@H]1CCCC[C@H]1C(=O)NC1(C#N)CC1)C3                 2.96
 3  CNC(=O)c1c(-c2ccc(F)cc2)oc2cc(N(CCO)S(C)(=O)=O)c(C3CC3)cc12 [NESBUVIR]                 1.78
 4  Oc1ccc(-c2ccc(C3(O)CN4CCC3CC4)cc2)cc1 (stereo not drawn)                 2.64
 5  O=C1COC2(CCN(S(=O)(=O)c3ccc(-c4ccc5cccnc5c4)cc3)CC2)CN1C1CC1                 0.28
 6  C[C@H](Oc1cccc2ncnc(Nc3ccc4c(cnn4Cc4cccc(F)c4)c3)c12)C(=O)N(C)C                 0.91
 7  Nc1cccc(NC(=O)c2ccc(CNC(=O)OCc3cccnc3)cc2)c1                 1.34
 8  CC(=O)N1CCC(n2cc(-c3cnc(N)c(-c4nc5ccccc5o4)c3)cn2)CC1                 0.23
 9       COc1cc(OC)nc(-n2ncc(Cl)c(Cl)c2=O)n1                 1.85
10  Cc1cc(C)cc(-c2[nH]c3sc(C(C)(C)C(=O)N4C5CCC4CC5)cc3c2CCN2CCC(C(=O)N3CCOCC3)C(C)C2)c1 (stereo not drawn)                 1.52

Input "CN(C)C(=O)c1nnsc1Sc1ccc(Cl)cc1" . Output log10 solubility thermodynamic: 1.50

Input "Cc1ccc(CO)cc1N(C)c1ccnc(Nc2cc(N3CCOCC3)cc(N3CCOCC3)c2)n1" . Output log10 solubility thermodynamic: 2.29

Input "Cc1ccc(NC(=O)c2cccc(N3CCOCC3)c2)cc1NC(=O)c1ccc(OCc2ccncc2)cc1" . Output log10 solubility thermodynamic: -0.30

###

test: in vitro; conditions: Beagle, dog, plasma
Label key: fulfilled means fraction unbound at 5 h under 0.06; not fulfilled means fraction unbound at 5 h of 0.06 or more.

> print(dat)
                                   molecule          class
1  CC(C)(C)NC(=O)NCCN1CCN(CC(=O)Nc2cc(Cl)cc(Cl)c2)CC1      fulfilled
2  CC[C@@H](Nc1c(Nc2cccc(C(=O)N(C)C)c2O)c(=O)c1=O)c1ccc(C)o1 [NAVARIXIN ANHYDROUS]  not fulfilled
3  CCS(=O)(=O)c1ccc(-c2cc(Cl)ccc2OCC(=O)O)c(F)c1      fulfilled
4  Cc1oc(CN2CCNCC2)cc1C(=O)NCC12CC3CC(CC(C3)C1)C2  not fulfilled
5  CC(C)(C)NC(=O)NCCN1CCC(CNC(=O)c2cc(Cl)cc(Cl)c2)C1 (configuration not stated)  not fulfilled
6  COCCOC(=O)C1=C(C)NC(C)=C(C(=O)OC(C)C)C1c1cccc([N+](=O)[O-])c1 (configuration not stated) [NIMODIPINE]      fulfilled

Ask: Quick check: fraction unbound at 5 h of "OCCO[C@H]1C[C@@H](n2nnc3c(N[C@@H]4C[C@H]4c4ccc(F)c(F)c4)nc(SCCC(F)(F)F)nc32)[C@H](O)[C@@H]1O" under 0.06?
Reply: fulfilled

###

assay: in vitro; conditions: human, liver microsomes
assay readout: microsomal CLint

molecule	microsomal CLint
Cc1c(Sc2ccc(Cl)cc2)c2cc(F)ccc2n1CC(=O)O	< 3 µL/min/mg
CCCCc1nc2c(N)nc3ccccc3c2n1CC(C)C	< 3 µL/min/mg
CCCN(CCNCCc1ccc(O)c2[nH]c(=O)sc12)C(=O)CCOCCc1ccccc1	> 150 µL/min/mg
COCC1=C(C(=O)OC(C)OC(=O)OC(C)C)N2C(=O)[C@@H](NC(=O)/C(=N\OC)c3csc(N)n3)[C@H]2SC1 (stereo not given in full) [CEFPODOXIME PROXETIL]	> 150 µL/min/mg

Now take the following molecule into account.
Input "N#Cc1cc(Cl)ccc1O[C@H](CCN)c1ccccc1" . Output microsomal CLint: < 3 µL/min/mg

###

assay: physchem; conditions: octan-1-ol/water, pH 7.4, LogD7.4
assay readout: logD
Keep the answer to the number alone.

Some entries whose results are on file:
> print(dat)
                                    compound  experimental.result
 1  Cc1ccc2c(c1)c(Sc1ccc(Cl)cc1)c(C)n2CC(=O)O                 2.18
 2  C[C@H](NC1=NC(=O)[C@@](C)(C(F)(F)F)S1)c1ccccc1F                  3.1
 3  O=C(NS(=O)(=O)c1ccc(NCCSc2ccccc2)c([N+](=O)[O-])c1)c1ccc(N2CCNCC2)cc1                -0.04
 4  CCn1cc(NC(=O)Cc2ccc(Oc3ccnc4cc(OC)c(OC)cc34)cc2OC)cn1                 3.42
 5  CS(=O)(=O)c1cccc(Nc2nccc(Nc3cccc4ocnc34)n2)c1                  2.9
 6  Cc1cc2c(F)c(Oc3ncnn4cc(OC[C@@H](C)OC(=O)[C@H](C)N)c(C)c34)ccc2[nH]1 [BRIVANIB ALANINATE]                 3.19
 7  COC(=O)c1ccc(NC(=O)c2cc(OC)c(OC)c(OC)c2)cc1                  3.2
 8      COc1cc2ncnc(Nc3ccc(Cl)c(O)c3)c2cc1OC                  3.3
 9  NC1(Cc2ccc(Cl)cc2)CCN(c2ncnc3[nH]ccc23)CC1                 2.72
10                 CSc1ncccc1C(=O)NCC1CCCCC1                 2.93

Input "CNc1nc2nc(SCc3cccc(F)c3F)nc(N[C@H](C)CO)c2s1" . Output logD: 3.7

Input "COc1cccc(OC)c1-c1ccc(C[C@H](NC(=O)c2c(Cl)cccc2Cl)C(=O)O)cc1" . Output logD: -0.27

Input CC1CN(C(=O)c2cc3ccccc3[nH]2)CCN1 (stereo not given) . Output logD: 0.94

Input Cc1cc(CN2Cc3ccccc3C2C(=O)Nc2ccc(Cl)cc2Cl)ccc1OCC(=O)O (stereo not given) . Output logD: 2.62

Input "Nc1ccc2[nH]c(Cc3ccc(Oc4ccccc4)cc3)nc2c1" . Output logD: 3.8
